Taken from paper PMC7419507.

Reported viability at 72 h, 0.00152588 uM values for a set of compounds
protocolSummary: Cytotoxicity assay (CellTiter-Glo, 72 h), Jurkat
Assay type: cell-based
testSettings: human, Jurkat cells (T lymphoma), conc 0.00152588 uM, raw data (replicates)
quantityKind: viability at 72 h, 0.00152588 uM (%)

compound	quantityKind	recordedValue
COC1CC2CCC(C)C(O)(O2)C(=O)C(=O)N2CCCCC2C(=O)OC(C(C)CC2CCC(O)C(OC)C2)CCC(C)C=C(C)C(O)C(OC)C(=O)C(C)CC(C)C=CC=CC=C1C (stereo not drawn)	viability at 72 h, 0.00152588 uM	56.5
CO[C@H]1C[C@@H]2CC[C@@H](C)[C@@](O)(O2)C(=O)C(=O)N2CCCC[C@H]2C(=O)O[C@H]([C@H](C)C[C@@H]2CC[C@@H](O)[C@H](OC)C2)CC(=O)[C@H](C)/C=C(\C)[C@@H](O)[C@@H](OC)C(=O)[C@H](C)C[C@H](C)/C=C/C=C/C=C/1C [Compound 1, rapamycin, reference compound]	viability at 72 h, 0.00152588 uM	100
CO[C@@H]1/C=C/C=C/[C@@H](C)C[C@@H](C)C(=O)C[C@H](O)/C(C)=C/[C@@H](C)C(=O)C[C@@H]([C@H](C)C[C@@H]2CC[C@@H](O)[C@H](OC)C2)OC(=O)[C@@H]2CCCCN2C(=O)C(=O)[C@]2(O)O[C@@H](CC[C@H]2C)C1	viability at 72 h, 0.00152588 uM	106
COC1CC2CCC(C)C(O)(O2)C(=O)C(=O)N2CCCCC2C(=O)OC(C(C)CC2CCC(O)C(OC)C2)CC(O)CC(=O)C(C)C=C(C)C(O)CC(=O)C(C)CC(C)C=CC=CC=C1C (stereo not drawn)	viability at 72 h, 0.00152588 uM	98.1
CO[C@@H]1C[C@H](C[C@@H](C)[C@@H]2CC(=O)[C@H](C)/C=C(\C)[C@@H](O)[C@@H](OC)C(=O)[C@H](C)C[C@H](C)/C=C/C=C/C=C(\C)[C@H](O)C[C@@H]3CC[C@@H](C)[C@@](O)(O3)C(=O)C(=O)N3CCCC[C@H]3C(=O)O2)CC[C@H]1O [Compound 17, (16R)-16-O-demethyl rapamycin]	viability at 72 h, 0.00152588 uM	106
COC1CC2CCC(C)C(O)(O2)C(=O)C(=O)N2CCCCC2C(=O)OC(C(C)CC2CCC(O)C(OC)C2)CC(=O)C(C)C=C(C)C(O)CC(=O)C(C)C=C(C)C=CC=CC=C1C (stereo not drawn)	viability at 72 h, 0.00152588 uM	101
CO[C@H]1C[C@@H]2CC[C@@H](C)[C@@](O)(O2)C(=O)C(=O)N2CCCC[C@H]2C(=O)O[C@H]([C@H](C)C[C@@H]2CC[C@@H](O)[C@H](OC)C2)CC(=O)[C@H](C)/C=C(\C)[C@@H](O)CC(=O)[C@H](C)C[C@H](C)/C=C/C=C(C)/C=C/1C	viability at 72 h, 0.00152588 uM	104
COC1CC2CCC(C)C(O)(O2)C(=O)C(=O)N2CCCCC2C(=O)OC(C(C)CC2CCC(O)C(OC)C2)CC(=O)C(C)C=C(C)C(O)C(OC)C(=O)C(C)CC(C)C=CCCC=C1C (stereo not drawn)	viability at 72 h, 0.00152588 uM	97.4
CO[C@H]1C[C@@H]2CC[C@@H](C)[C@@](O)(O2)C(=O)C(=O)N2CCCC[C@H]2C(=O)O[C@H]([C@H](C)C[C@@H]2CC[C@@H](O)[C@H](OC)C2)CC(=O)[C@H](C)/C=C(\C)[C@@H](O)CC[C@H](C)/C=C/C=C/C=C/1C	viability at 72 h, 0.00152588 uM	105

----------
protocolSummary: Cytotoxicity assay (CellTiter-Glo, 72 h), MESO-1
Format: cell-based
testSettings: human, MESO-1 malignant pleural mesothelioma cells, conc 0.00038147 uM; raw replicate data; read-out: MESO1 viability (%)
Reported viability at 72 h, 0.00038147 uM values for a set of compounds

compound	displayUnit	viability at 72 h, 0.00038147 uM
COC1CC2CCC(C)C(O)(O2)C(=O)C(=O)N2CCCCC2C(=O)OC(C(C)CC2CCC(O)C(OC)C2)CC(=O)C(C)C=C(C)C(O)C(OC)C(=O)C(C)CC(C)C=CCCC=C1C (stereo not drawn)	%	98.8
COC1CC2CCC(C)C(O)(O2)C(=O)C(=O)N2CCCCC2C(=O)OC(C(C)CC2CCC(O)C(OC)C2)CC(O)CC(=O)C(C)C=C(C)C(O)CC(=O)C(C)CC(C)C=CC=CC=C1C (stereo not drawn)	%	103
CO[C@H]1C[C@@H]2CC[C@@H](C)[C@@](O)(O2)C(=O)C(=O)N2CCCC[C@H]2C(=O)O[C@H]([C@H](C)C[C@@H]2CC[C@@H](O)[C@H](OC)C2)CC(=O)[C@H](C)/C=C(\C)[C@@H](O)[C@@H](OC)C(=O)[C@H](C)C[C@H](C)/C=C/C=C/C=C/1C [Compound 1, rapamycin, reference compound]	%	83.4
CO[C@@H]1/C=C/C=C/[C@@H](C)C[C@@H](C)C(=O)C[C@H](O)/C(C)=C/[C@@H](C)C(=O)C[C@@H]([C@H](C)C[C@@H]2CC[C@@H](O)[C@H](OC)C2)OC(=O)[C@@H]2CCCCN2C(=O)C(=O)[C@]2(O)O[C@@H](CC[C@H]2C)C1	%	95
CO[C@H]1C[C@@H]2CC[C@@H](C)[C@@](O)(O2)C(=O)C(=O)N2CCCC[C@H]2C(=O)O[C@H]([C@H](C)C[C@@H]2CC[C@@H](O)[C@H](OC)C2)CC(=O)[C@H](C)/C=C(\C)[C@@H](O)CC[C@H](C)/C=C/C=C/C=C/1C	%	98.8
COC1CC2CCC(C)C(O)(O2)C(=O)C(=O)N2CCCCC2C(=O)OC(C(C)CC2CCC(O)C(OC)C2)CCC(C)C=C(C)C(O)C(OC)C(=O)C(C)CC(C)C=CC=CC=C1C (stereo not drawn)	%	94.8
CO[C@@H]1C[C@H](C[C@@H](C)[C@@H]2CC(=O)[C@H](C)/C=C(\C)[C@@H](O)[C@@H](OC)C(=O)[C@H](C)C[C@H](C)/C=C/C=C/C=C(\C)[C@H](O)C[C@@H]3CC[C@@H](C)[C@@](O)(O3)C(=O)C(=O)N3CCCC[C@H]3C(=O)O2)CC[C@H]1O [Compound 17, (16R)-16-O-demethyl rapamycin]	%	100
COC1CC2CCC(C)C(O)(O2)C(=O)C(=O)N2CCCCC2C(=O)OC(C(C)CC2CCC(O)C(OC)C2)CC(=O)C(C)C=C(C)C(O)CC(=O)C(C)C=C(C)C=CC=CC=C1C (stereo not drawn)	%	94.8
CO[C@H]1C[C@@H]2CC[C@@H](C)[C@@](O)(O2)C(=O)C(=O)N2CCCC[C@H]2C(=O)O[C@H]([C@H](C)C[C@@H]2CC[C@@H](O)[C@H](OC)C2)CC(=O)[C@H](C)/C=C(\C)[C@@H](O)CC(=O)[C@H](C)C[C@H](C)/C=C/C=C(C)/C=C/1C	%	96

----------
Reported viability at 72 h, 3.125 uM values for a set of compounds
protocolSummary: Cytotoxicity assay (CellTiter-Glo, 72 h), Jurkat
Type: cell-based
testSettings: human, Jurkat cells (T lymphoma), conc 3.125 uM, raw data (replicates)

compound	viability at 72 h, 3.125 uM [%]
CO[C@H]1C[C@@H]2CC[C@@H](C)[C@@](O)(O2)C(=O)C(=O)N2CCCC[C@H]2C(=O)O[C@H]([C@H](C)C[C@@H]2CC[C@@H](O)[C@H](OC)C2)CC(=O)[C@H](C)/C=C(\C)[C@@H](O)CC(=O)[C@H](C)C[C@H](C)/C=C/C=C(C)/C=C/1C	90.3
CO[C@H]1C[C@@H]2CC[C@@H](C)[C@@](O)(O2)C(=O)C(=O)N2CCCC[C@H]2C(=O)O[C@H]([C@H](C)C[C@@H]2CC[C@@H](O)[C@H](OC)C2)CC(=O)[C@H](C)/C=C(\C)[C@@H](O)CC[C@H](C)/C=C/C=C/C=C/1C	24.2
CO[C@@H]1C[C@H](C[C@@H](C)[C@@H]2CC(=O)[C@H](C)/C=C(\C)[C@@H](O)[C@@H](OC)C(=O)[C@H](C)C[C@H](C)/C=C/C=C/C=C(\C)[C@H](O)C[C@@H]3CC[C@@H](C)[C@@](O)(O3)C(=O)C(=O)N3CCCC[C@H]3C(=O)O2)CC[C@H]1O [Compound 17, (16R)-16-O-demethyl rapamycin]	28.8
COC1CC2CCC(C)C(O)(O2)C(=O)C(=O)N2CCCCC2C(=O)OC(C(C)CC2CCC(O)C(OC)C2)CC(O)CC(=O)C(C)C=C(C)C(O)CC(=O)C(C)CC(C)C=CC=CC=C1C (stereo not drawn)	30.2
CO[C@H]1C[C@@H]2CC[C@@H](C)[C@@](O)(O2)C(=O)C(=O)N2CCCC[C@H]2C(=O)O[C@H]([C@H](C)C[C@@H]2CC[C@@H](O)[C@H](OC)C2)CC(=O)[C@H](C)/C=C(\C)[C@@H](O)[C@@H](OC)C(=O)[C@H](C)C[C@H](C)/C=C/C=C/C=C/1C [Compound 1, rapamycin, reference compound]	23.9
COC1CC2CCC(C)C(O)(O2)C(=O)C(=O)N2CCCCC2C(=O)OC(C(C)CC2CCC(O)C(OC)C2)CC(=O)C(C)C=C(C)C(O)C(OC)C(=O)C(C)CC(C)C=CCCC=C1C (stereo not drawn)	28.2
COC1CC2CCC(C)C(O)(O2)C(=O)C(=O)N2CCCCC2C(=O)OC(C(C)CC2CCC(O)C(OC)C2)CC(=O)C(C)C=C(C)C(O)CC(=O)C(C)C=C(C)C=CC=CC=C1C (stereo not drawn)	45.1
CO[C@@H]1/C=C/C=C/[C@@H](C)C[C@@H](C)C(=O)C[C@H](O)/C(C)=C/[C@@H](C)C(=O)C[C@@H]([C@H](C)C[C@@H]2CC[C@@H](O)[C@H](OC)C2)OC(=O)[C@@H]2CCCCN2C(=O)C(=O)[C@]2(O)O[C@@H](CC[C@H]2C)C1	29.7
COC1CC2CCC(C)C(O)(O2)C(=O)C(=O)N2CCCCC2C(=O)OC(C(C)CC2CCC(O)C(OC)C2)CCC(C)C=C(C)C(O)C(OC)C(=O)C(C)CC(C)C=CC=CC=C1C (stereo not drawn)	20.3
